Entries and their % Inhibition
- System: Plasmodium falciparum
- protocol.description: Primary screen in NF54 nanoGlo assay, in single point, at 2uM, 72h
- Assay type: functional, Erythrocyte
- measurement.context: timepoint 72 hour
In all, about 150,000 compounds went through this assay and about 540 (0.36%) showed an effect of 50% or more. Only a selection was taken, and strong results are over-represented in it overall.
Express the result in % but write the number alone.

[[record]]
chem_smiles = "O=C(c1ccccc1C(F)(F)F)N1CC2(CCOC2)C1"
measured_target = "Plasmodium falciparum"
test_readout = "% Inhibition"
test_value = 5

[[record]]
chem_smiles = "Nc1nnnn1CC(=O)N[C@H]1CC(=O)Nc2ccccc21"
measured_target = "Plasmodium falciparum"
test_readout = "% Inhibition"
test_value = 10

[[record]]
chem_smiles = "O=C(Cn1nc(-n2cccn2)ccc1=O)NCc1ccco1"
measured_target = "Plasmodium falciparum"
test_readout = "% Inhibition"
test_value = -7

[[record]]
chem_smiles = "CCc1ccc(/C=C/c2c[nH]c3ccccc23)[n+](CC)c1"
measured_target = "Plasmodium falciparum"
test_readout = "% Inhibition"
test_value = 93

[[record]]
chem_smiles = "CCCCc1ccc(NCc2c[nH]c3ccccc23)cc1"
measured_target = "Plasmodium falciparum"
test_readout = "% Inhibition"
test_value = 1


Kindly review the next compound as well.
Problem: Given CC(C)[C@H](NC(=O)c1cc(O)ccn1)C(=O)NC1CCCCC1 , state its recorded % Inhibition.
Solution: -5

###

- Test system: Plasmodium falciparum
- protocol.description: Primary screen in NF54 nanoGlo assay, in single point, at 2uM, 72h
- Assay type: functional, Erythrocyte
- measurement.context: timepoint 72 hour
About 540 (0.36%) of roughly 150,000 compounds showed an effect of 50% or more. The entries come from a sample that favours strong results as a whole.
We begin with a simple list: items and their reported % Inhibition.
State the answer as a number, implicitly in %.

[[record]]
compound = "CN(Cc1ccsc1)C(=O)c1cccs1"
test_value = -2

[[record]]
compound = "CCN(CC)S(=O)(=O)c1ccc2c(c1)nnn2CCNC(=O)Nc1cccc(F)c1"
test_value = 26

[[record]]
compound = "O=C(NCc1ccc(-n2cncn2)nc1)c1ccncc1"
test_value = -19

[[record]]
compound = "CCc1ccc(NC(=O)c2sc3nc(C)c(C(=O)Nc4ccc(C)cc4C)c(-c4ccccc4Cl)c3c2N)cc1"
test_value = 40

[[record]]
compound = "Cc1cc(=O)[nH]c(-n2nc(C3CC3)cc2NC(=O)C(c2ccccc2)c2ccccc2)n1"
test_value = 86


Problem: Data request, read-out % Inhibition, for O=C(CCc1cn(-c2ccccc2)nc1-c1ccc2c(c1)OCO2)NC[C@H]1CCCO1
Solution: 0

Problem: Param item = CC1CCC(C(C)C)C(OC(=O)Cn2nnc(C(N)=O)n2)C1 (configuration not stated) ; retrieve measured % Inhibition.
Solution: 19

Problem: Report % Inhibition for Cc1ccc(NC(=O)c2c(C)nc3sc(C(=O)NCc4ccccc4)c(N)c3c2-c2cccs2)c(C)c1 please.
Solution: 61

Problem: Return reported % Inhibition; argument: CN(C)CCN(Cc1ccsc1)C(=O)c1cc2cc(F)ccc2[nH]1
Solution: -5

Problem: I am curious: what % Inhibition value has been reported for COCCNC(=O)CCc1cn(-c2ccccc2)nc1-c1ccc2c(c1)OCO2 ?
Solution: -10

Problem: Give the measured % Inhibition of COCC(=O)Nc1cc(C2CC2)nn1-c1nc(C)cc(=O)[nH]1 .
Solution: 4

Problem: Request the reported % Inhibition associated with N#Cc1nccnc1O[C@H]1CCCN(C(=O)NCc2ccc(Cl)cc2)C1
Solution: -10

Problem: Consider the compound Cc1cc(CNC(=O)N[C@@H]2CCc3cc(F)ccc32)on1 and give its measured % Inhibition.
Solution: -7

Problem: Quick one: % Inhibition for CCOc1cccc(-c2ccc3nc(-c4cccc(OC)c4)c(CCC(=O)NCCc4ccc(OC)c(OC)c4)n3c2)c1 ?
Solution: 22

Problem: I would be grateful if you could share the reported % Inhibition for CCn1c(CN2CCCC2)nc2cc(S(=O)(=O)N3CCCCC3)ccc21 .
Solution: -46

Problem: Which % Inhibition value is on record for Cc1nn(C)c(C)c1CC(=O)N1CCC2(CCC2)S(=O)(=O)CC1 ?
Solution: -5
